Each recorded value in this set is attributed to patent US20210115124A1.

# testedTarget: T1, human VEGF (hVEGF) (human, UniProt P15692 181-395)
# T1 construct: also called VEGF-A
# T1 sequence: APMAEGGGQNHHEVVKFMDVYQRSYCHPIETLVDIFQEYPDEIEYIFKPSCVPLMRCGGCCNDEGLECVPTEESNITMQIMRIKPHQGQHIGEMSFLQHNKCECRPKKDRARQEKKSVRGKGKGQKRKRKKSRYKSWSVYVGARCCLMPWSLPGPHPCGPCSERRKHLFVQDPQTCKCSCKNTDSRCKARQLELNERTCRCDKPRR
# protocolDetails: SPR single-cycle
# pKd annotations
Formally, pKd is defined as -log10 of the concentration c, with c in mol/L.

binder="G6.31 HC-Q81S (Fab, name in Kabat numbering, V domains shown, Fab) VH: EVQLVESGGGLVQPGGSLRLSCAASGFTISDYWIHWVRQAPGKGLEWVAGITPAGGYTYYADSVKGRFTISADTSKNTAYLSMNSLRAEDTAVYYCARFVFFLPYAMDYWGQGTLVTVSS VL: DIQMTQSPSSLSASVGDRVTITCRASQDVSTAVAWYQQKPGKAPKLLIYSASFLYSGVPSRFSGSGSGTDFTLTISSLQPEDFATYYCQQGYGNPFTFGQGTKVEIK" valuekind=pKd numericresult=9.35

IN: Request the reported pKd associated with G6.31 LC-N94Q (Fab, V domains shown, Fab) VH: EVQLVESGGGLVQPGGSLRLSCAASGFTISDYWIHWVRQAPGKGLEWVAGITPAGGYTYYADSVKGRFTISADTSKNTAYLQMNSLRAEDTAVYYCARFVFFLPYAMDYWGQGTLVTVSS VL: DIQMTQSPSSLSASVGDRVTITCRASQDVSTAVAWYQQKPGKAPKLLIYSASFLYSGVPSRFSGSGSGTDFTLTISSLQPEDFATYYCQQGYGQPFTFGQGTKVEIK
OUT: 8.32

IN: Subsequent entry: G6.31 LC-Y36G (Fab, V domains shown, Fab) VH: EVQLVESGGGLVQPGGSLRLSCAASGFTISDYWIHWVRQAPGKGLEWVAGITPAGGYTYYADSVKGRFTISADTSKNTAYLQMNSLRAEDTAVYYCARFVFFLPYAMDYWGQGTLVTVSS VL: DIQMTQSPSSLSASVGDRVTITCRASQDVSTAVAWGQQKPGKAPKLLIYSASFLYSGVPSRFSGSGSGTDFTLTISSLQPEDFATYYCQQGYGNPFTFGQGTKVEIK
OUT: 8.61

IN: Subsequent entry: G6.31 HC-Y58Q (Fab, name in Kabat numbering, V domains shown, Fab) VH: EVQLVESGGGLVQPGGSLRLSCAASGFTISDYWIHWVRQAPGKGLEWVAGITPAGGYTQYADSVKGRFTISADTSKNTAYLQMNSLRAEDTAVYYCARFVFFLPYAMDYWGQGTLVTVSS VL: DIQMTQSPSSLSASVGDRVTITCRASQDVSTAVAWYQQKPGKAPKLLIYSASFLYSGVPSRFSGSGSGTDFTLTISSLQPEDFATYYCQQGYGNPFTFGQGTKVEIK
OUT: 8.99

IN: Subsequent entry: G6.31 HC-A40E (Fab, name in Kabat numbering, V domains shown, Fab) VH: EVQLVESGGGLVQPGGSLRLSCAASGFTISDYWIHWVRQEPGKGLEWVAGITPAGGYTYYADSVKGRFTISADTSKNTAYLQMNSLRAEDTAVYYCARFVFFLPYAMDYWGQGTLVTVSS VL: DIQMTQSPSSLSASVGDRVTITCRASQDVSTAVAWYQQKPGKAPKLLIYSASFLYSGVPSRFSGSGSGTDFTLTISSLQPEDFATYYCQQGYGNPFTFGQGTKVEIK
OUT: 9.39
